Reference source for all entries: PubChem BioAssay (NCI)

Test system: HCC-2998 colon
test.name: NCI tumour cell line growth inhibition, 48 h
quantity.name: TGI

Query O=S(CCc1ccccc1)Nc1ccccc1 (stereo not given) yields TGI of > 100 µM

Reported TGI for CC12CCC3(C1)[C@H](CC2=O)C[C@@H](OC(=O)c1ccccc1)C1C(C)(CO)CCC[C@@]13C (stereo not given in full) was > 100 µM

What the record says about Clc1ccc(-c2ccc(CNCC3CCNCC3)o2)c(-c2ccccc2)c1 : TGI is 3.2 µM

Summary for this compound, CCOP(=O)(OCC)/C(C#N)=C/c1coc2cc(C)cc(C)c2c1=O : TGI is > 100 µM

Kindly note the recorded TGI for CCCOC(=O)c1ccc2c(c1)[N+](=O)C(C(=O)c1ccccc1)=C(C(F)(F)F)[N+]2=O , which is 3.29 µM

Please fill in: TGI reported for CC(=O)OC1COC(n2c3ccccc3c3ccc4c5ccccc5[nH]c4c32)C(OC(C)=O)C1OC(C)=O (stereo not given) = > 100 µM

Quick note, TGI for COCn1cnc2c(=O)n(-c3ccc(C)cc3)c(=S)n(-c3ccc(C)cc3)c21 landed at > 100 µM

The recorded TGI for entry O=C1C[C@@H](c2ccc(O)cc2)[C@@]2(O1)C(=O)O[C@H]([C@@H](O)CO)[C@@H]2O equals > 100 µM

Data point: COc1cc2c(cc1OC)C1c3ccccc3CCCN1CC2 (stereo not given) ; TGI = > 100 µM

What the record says about COc1ccc(OC)c2c(C(=O)O)c(C(C)c3ccccc3)ccc12 (stereo not given) : TGI is > 100 µM
